FYI, the data here is from the supplement of paper PMC7877785.

Test: self-splicing fitness, log relative to wild type (ln ratio); higher = more splicing; Tetrahymena group I intron in knt gene, E. coli kanamycin selection, DiMSum; sequences stand for … in CUCUCU…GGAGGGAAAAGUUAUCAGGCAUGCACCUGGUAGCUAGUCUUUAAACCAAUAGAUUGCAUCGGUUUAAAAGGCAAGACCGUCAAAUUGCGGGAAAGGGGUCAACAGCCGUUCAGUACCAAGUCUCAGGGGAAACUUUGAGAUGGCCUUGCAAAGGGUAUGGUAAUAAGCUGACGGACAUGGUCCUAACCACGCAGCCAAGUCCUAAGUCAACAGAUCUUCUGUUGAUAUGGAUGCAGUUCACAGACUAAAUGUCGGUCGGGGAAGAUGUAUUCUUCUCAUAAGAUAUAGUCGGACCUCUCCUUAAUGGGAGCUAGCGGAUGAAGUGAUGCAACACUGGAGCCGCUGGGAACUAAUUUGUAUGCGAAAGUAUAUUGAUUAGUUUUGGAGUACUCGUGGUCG;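 note: selection with 25 µg/mL kanamycin versus none on LB agar overnight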
Test settings: 37 °C
So basically: self-splicing fitness (ln) at -0.4 or higher? That is met. Lower than -0.4? That is not met.

GGCAAGCAAUAUUACGCUGU :: not met
UCGUAGCAAUAUUACGCUAU :: not met
GUCUAGCAAUAUUACGUACC :: not met
UCUAAGCAAUAUUACGGCUG :: not met
CGAUAGCAAUAUUACGACGU :: met
UACGAGCAAUAUUACGUUAA :: not met
UCUUAGCAAUAUUACGUCCU :: not met
AACAAGCAAUAUUACGAGUG :: met
UAUAAGCAAUAUUACGAUAA :: not met
AUACAGCAAUAUUACGGUUG :: met
GGGGAGCAAUAUUACGAAUU :: not met
AGACAGCAAUAUUACGGUGG :: not met
GCGAAGCAAUAUUACGAUGA :: met
GGUCAGCAAUAUUACGUCUU :: met
AUUUAGCAAUAUUACGAUAA :: not met
CACUAGCAAUAUUACGACCA :: not met
AGUGAGCAAUAUUACGGCGU :: not met
GGGGAGCAAUAUUACGGAGC :: not met
ACGAAGCAAUAUUACGCUCU :: met
